Read-out: Pro-epidermal growth factor (Homo sapiens)
procedure-details: LTEA_HepaRG_EGF: Life Technologies and Expression Analysis (LTEA) Assay for Epidermal growth factor (EGF) using HepaRG (AID 2283489)
measurement-context: mRNA level, 48 h; actives raise or lower the signal
Calls of active or inactive are those of the source. Rule for the calls: active = hit-call score of the fitted dose curve at least 0.9, where 1 is the maximum; inactive = score below 0.9.
# valid calls are yes (1) = active, no (0) = inactive; nothing else

compound	category-label
Nc1ccc(-c2ccc(N)cc2)cc1	no (0)
CCSC(=O)N(CC)C1CCCCC1	no (0)

Prompt line: How was `O=C(NC(=O)c1cc(F)c(F)cc1Cl)Nc1cc(F)ccc1N1CCC(C(=O)O)CC1` classified in this test?
Response line: no (0)

Prompt line: Query: recorded result category for `CCCCCCCCCc1ccc(O)cc1` in this test
Response line: no (0)

Prompt line: Please let me know the test result on file for C1CC2OC2CC1C1CO1 (configuration not stated) .
Response line: no (0)

Prompt line: Entry `ClC1=C(Cl)[C@]2(Cl)[C@@H]3[C@@H]4C[C@@H]([C@H]5O[C@@H]45)[C@@H]3[C@@]1(Cl)C2(Cl)Cl` : call = ?
Response line: no (0)

Prompt line: # outcome recorded in this test, key = `Cc1ccccc1O`
Response line: no (0)

Prompt line: Recorded call for `O=C(O)C(F)(F)C(F)(F)C(F)(F)C(F)(F)C(F)(F)C(F)(F)C(F)(F)C(F)(F)F` ?
Response line: no (0)

Prompt line: Kindly provide the recorded test outcome for the following compound: `CO/C=C(/C(=O)OC)c1ccccc1COc1cccc(C(F)(F)F)n1`
Response line: yes (1)

Prompt line: Hello, I am checking results. What call was entered for `COc1ccc(O)c(C(C)(C)C)c1` ?
Response line: no (0)

###

Read-out: Interleukin 6 (IL6), IL6 (gene 3569)
procedure-details: LTEA_HepaRG_IL6: Life Technologies and Expression Analysis (LTEA) Assay for Interleukin 6 (IL6) using HepaRG (AID 2283509)
measurement-context: mRNA level, 48 h; actives raise or lower the signal
The source made the active and inactive calls. How the source made its calls: active means hit-call score of the fitted dose curve at least 0.9, where 1 is the maximum; inactive means score below 0.9.
Just give me one of these, please: active, inactive

Study these solved cases before continuing.
chemical-smiles	category-label
CCCN(CCC)N=O	inactive
O=C(O)C(F)(F)C(F)(F)C(F)(F)C(F)(F)C(F)(F)C(F)(F)C(F)(F)C(F)(F)C(F)(F)F	active
O=NN(c1ccccc1)c1ccccc1	inactive
CCC(=O)O[C@H]1CC[C@H]2[C@@H]3CCC4=CC(=O)CC[C@]4(C)[C@H]3CC[C@]12C	active
C[C@]12CCC(=O)C=C1CC[C@@H]1[C@@H]2CC[C@@]2(C)[C@H]1CC[C@]2(C)O	inactive

Now for another entry.
Prompt line: How did this test come out for `c1ccc(-c2ccccc2)cc1` ?
Response line: inactive

###

Read-out: Paternally Expressed 10 (PEG10), PEG10 (gene 23089)
procedure-details: LTEA_HepaRG_PEG10: Life Technologies and Expression Analysis (LTEA) Assay for Paternally Expressed 10 (PEG10) using HepaRG (AID 2283520)
measurement-context: mRNA level, 48 h; actives raise or lower the signal
Active and inactive are the calls of the source. How the source made its calls: active means hit-call score of the fitted dose curve at least 0.9, where 1 is the maximum; inactive means score below 0.9.
Outcomes you can answer with include only these: active, inactive

Answered cases to consult:
chemical-smiles	category-label
N#Cc1ccc(N(CC(N)=O)CC(F)(F)F)cc1C(F)(F)F	active
CCCCCCCCCC[N+](C)(C)CCCCCCCCCC	active
CCC(=O)O[C@H]1CC[C@H]2[C@@H]3CCC4=CC(=O)CC[C@]4(C)[C@H]3CC[C@]12C	active
CCOCCOC(C)=O	inactive

Prompt line: Hey, what did the test say about `Cc1ccc(O)c(C)c1` ?
Response line: inactive

Prompt line: Recorded test call requested for `Clc1ccc(Cl)cc1`
Response line: inactive

Prompt line: In this assay, the call recorded for `O=C(N[C@H]1CN2CCC1CC2)c1cc2ccoc2cn1` was what?
Response line: inactive

Prompt line: State the result this test recorded for `CC(C)(c1ccccc1)c1ccc(O)cc1` .
Response line: active

Prompt line: Assay result, entry `CN(C)c1nc(=O)n(C2CCCCC2)c(=O)n1C` — outcome?
Response line: inactive

###

Read-out: CD40, CD40 (gene 958)
procedure-details: BSK_LPS_CD40: BioMAP Diversity Plus: LPS Assay for CD40 Biomarker Activity (AID 2283076)
measurement-context: primary human HUVEC with PBMC; actives raise or lower the signal
Active and inactive are the calls of the source. How the source made its calls: active means hit-call score of the fitted dose curve at least 0.9, where 1 is the maximum; inactive means score below 0.9.
In this exercise, the only acceptable responses are True for active, False for inactive

compound	category-label
CC(C)C(=O)OCC(C)(C)C(OC(=O)C(C)C)C(C)C (stereo unspecified)	False
CC(C)(O)C(=O)Nc1ccc([N+](=O)[O-])c(C(F)(F)F)c1	False
CCC(C)(c1ccc(O)cc1)c1ccc(O)cc1	True
CC1=C2C[C@H]3[C@@H](CC=C4C[C@@H](O)CC[C@@]43C)[C@@H]2CC[C@]12O[C@@H]1C[C@H](C)CN[C@H]1[C@H]2C	False

Prompt line: GET /call?item= `ClC1=C(Cl)[C@]2(Cl)[C@@H]3[C@@H](Cl)[C@H]4O[C@H]4[C@@H]3C1(Cl)C2(Cl)Cl` returns the recorded outcome of this test.
Response line: False

###

Read-out: Bcl-2 (BAX) gene, BAX (gene 581)
procedure-details: LTEA_HepaRG_BAX: Life Technologies and Expression Analysis (LTEA) Assay for Bcl-2 (BAX) gene using HepaRG (AID 2283470)
measurement-context: mRNA level, 48 h; actives raise or lower the signal
Active and inactive are the calls of the source. Rule for the calls: active = hit-call score of the fitted dose curve at least 0.9, where 1 is the maximum; inactive = score below 0.9.
// classify into True (active), False (inactive)

compound	category-label
CCOP(=S)(OCC)SCSC(C)(C)C	False
CC(c1ccc(O)cc1)(c1ccc(O)cc1)c1ccc(O)cc1	False
CCNc1nc(NC(C)C)nc(SC)n1	False
c1ccc(-c2ccccc2)cc1	False

Prompt line: How was Clc1ccc(C(c2ccccc2Cl)C(Cl)(Cl)Cl)cc1 (configuration not stated) classified in this test?
Response line: False

###

procedure-details: ATG_AP_1_CIS: Attagene CIS-FACTORIAL HepG2 Assay for human Activator Protein 1 (AP-1) (AID 2282931)
measurement-context: HepG2 Attagene cis-factorial AP-1 reporter mRNA; actives raise or lower the signal
Protocol: ATG_CIS is a cell-based, multiplexed-readout assay that uses HepG2, a human liver cell line, with measurements taken at 24 hours after chemical dosing in a 24-well plate.ATG_AP_1_CIS is one of 52 assay component(s) measured or calculated from the ATG_CIS assay. […] This assay endpoint, ATG_AP_1_CIS, was analyzed with bidirectional fitting relative to DMSO as the negative control and baseline of activity. […]
Active and inactive are the calls of the source. The calls were made as follows: active = hit-call score of the fitted dose curve at least 0.9, where 1 is the maximum; inactive = score below 0.9.
The reply should be one of these categories: active, inactive

molecule	category-label
CC(C)(O)C(=O)Nc1ccc([N+](=O)[O-])c(C(F)(F)F)c1	inactive
Sc1ccccc1	inactive

Prompt line: Recorded test call requested for `Oc1ccc(Cl)cc1Cl`
Response line: inactive

Prompt line: Tell me the assay call for `O=C(O)C(F)(F)C(F)(F)C(F)(F)C(F)(F)C(F)(F)F` please.
Response line: inactive

Prompt line: Would you mind telling me which call this test gave `ClC1=C(Cl)[C@]2(Cl)[C@@H]3[C@@H]4C[C@@H]([C@H]5O[C@@H]45)[C@@H]3[C@@]1(Cl)C2(Cl)Cl` ?
Response line: inactive

###

Read-out: Intercellular Adhesion Molecule 1 (ICAM1), ICAM1 (gene 3383)
procedure-details: BSK_3C_ICAM1: BioMAP Diversity Plus: 3C Assay for Intercellular Adhesion Molecule 1 (ICAM1) Biomarker Activity (AID 2283003)
measurement-context: primary human endothelial cells (HUVEC); actives raise or lower the signal
Calls of active or inactive are those of the source. How the source made its calls: active means hit-call score of the fitted dose curve at least 0.9, where 1 is the maximum; inactive means score below 0.9.
Form entry, call: pick from TRUE = active, FALSE = inactive

Before answering, review these 2 worked examples.
molecule	category-label
CCCCCCCCCC[N+](C)(C)CCCCCCCCCC	TRUE
CCCCCCCCCc1ccc(O)cc1	TRUE

Prompt line: Just curious, what result did `Clc1ccc(Cl)cc1` get here?
Response line: FALSE

Prompt line: Assay outcome for `CCCCCCOC(=O)c1ccccc1C(=O)OCCCCCC` : what was it?
Response line: FALSE

Prompt line: Please share the test call associated with Clc1ccc(C(c2ccccc2Cl)C(Cl)(Cl)Cl)cc1 (stereo not drawn) .
Response line: TRUE

Prompt line: Hi, do you know how `Cc1ccccc1O` came out in this test?
Response line: FALSE

###

Read-out: Transforming growth factor beta 1 (TGFb1), TGFB1 (gene 7040)
procedure-details: BSK_BE3C_TGFb1: BioMAP Diversity Plus: BE3C Assay for Transforming growth factor beta 1 (TGFb1) Biomarker Activity (AID 2283036)
measurement-context: primary human bronchial epithelial cells; actives raise or lower the signal
The source made the active and inactive calls. How the source made its calls: active means hit-call score of the fitted dose curve at least 0.9, where 1 is the maximum; inactive means score below 0.9.
A correct response names exactly one class from 1 = active, -1 = inactive

molecule	category-label
CC(C)(c1ccccc1)c1ccc(O)cc1	1

Now, please, on to the next molecule.
Prompt line: Identify the outcome logged in this assay for the molecule shown: `CCNc1nc(NC(C)C)nc(SC)n1`
Response line: -1
